// provenance: paper PMC8558239

assay: Tissue residue depletion in goats (LC-MS/MS); assay type: in vivo, goats (Capra hircus); settings: both sexes, Boaer-cross, goat (Capra hircus), intramuscular, 20 mg FF/kg bw; liver, 21 days after last dose, i.m., mean ± SD, 4 goats
MEASURED_METRIC: concentration at 21 days after last dose (ng/g)
# number only, unit ng/g dropped from output

[ask] Provide concentration at 21 days after last dose value for the following compound: CS(=O)(=O)c1ccc([C@@H](O)[C@@H](CF)NC(=O)C(Cl)Cl)cc1 [FF]
[reply] 44.5

====

test: Tissue residue depletion in goats (LC-MS/MS); type: in vivo, goats (Capra hircus); conditions: both sexes, Boaer-cross, goat, intramuscular, 20 mg/kg bw; liver, 1 day after last dose, i.m., mean ± SD, 4 goats; read-out: Tissue concentration FF
MEASURED_METRIC: concentration at 1 day (ng/g)
Write down the numeric answer in ng/g and omit the unit.

[ask] Using known records, supply concentration at 1 day for CS(=O)(=O)c1ccc([C@@H](O)[C@@H](CF)NC(=O)C(Cl)Cl)cc1 [FF]
[reply] 2050
